Test system: HT29 colon
Experiment: NCI-60 one-dose screen, 48 h
Details: 10 µM unless noted
About 83,000 compounds went through this panel and 20% of them were active in at least one assay; those are over-represented in the sample as a whole. The source made the active and inactive calls. Rule for the calls: active = growth percent below 10; inactive = the rest.
Choose one outcome from this list and give only that: true = active, false = inactive

GET /call?item= `C/C(=N\O)[C@@H]1CC[C@]2(CO)CC[C@]3(C)[C@H](CC[C@@H]4[C@@]5(C)CCCNC(C)(C)[C@@H]5CC[C@]43C)[C@@H]12` returns the recorded outcome of this test. false

Check the results log: what was the call for CN(Cc1ccccc1)c1nc(Cl)c(C2CC(c3ccccc3)=NN2c2ccccc2)s1 (centres undefined) ? false

Tell me the recorded outcome of this test for `CCCC(CC)(C(=O)Nc1ccc2nc(C)cc(N)c2c1)C(=O)Nc1ccc2nc(C)cc(N)c2c1` . false

// return assay outcome for `N=C(N)c1ccc(-c2ccc(-c3ccccc3)s2)cc1` true

For CCN1C(=O)N(CC)C2C1N=C(SCc1ccc(Cl)cc1)N2/N=C/C=C/c1ccccc1OC (centres undefined) , which call appears in the assay record? false

For `C=Cc1cnc(Nc2ccc(OC)cc2)nc1NCCCNC(=O)C1CCC1` , what call appears in the results of this test? true

What is the recorded call for this compound in the test? `CSc1nn2c(-c3ccc4ccccc4c3)ccnc2c1C#N` true

Please share the test call associated with `COc1ccc2cc(-c3ccnc4c(N=Nc5ccc(Cl)cc5)c(N)nn34)ccc2c1` . false

Can you look up the reported call for `C#CC#CC#CC#CC#CC#CC#CC#CC[C@@H]1OC[C@@H](COC(=O)O[C@@H](C(=O)O[C@H]2C[C@@]3(O)[C@@H](OC(=O)c4ccccc4)[C@@H]4[C@]5(OC(C)=O)CO[C@@H]5C[C@H](O)[C@@]4(C)C(=O)[C@H](OC(C)=O)C(=C2C)C3(C)C)[C@@H](NC(=O)c2ccccc2)c2ccccc2)O1` for me? false

====

System: OVCAR-5 ovarian
Assay: NCI-60 one-dose screen, 48 h (100 = growth as untreated, 0 = no growth, -100 = all killed)
Conditions: 10 µM unless noted
About 83,000 compounds went through this panel and 20% of them were active in at least one assay; those are over-represented in the sample as a whole. Activity calls are given as the source filed them. Rule for the calls: active = growth percent below 10; inactive = the rest.
measure: growth

What does the data say about its growth? Entry: `CCOC(=O)C(Cc1ccc(OC)cc1)C(=O)OCC` 72% (inactive)

Value lookup for growth; key = `O=C(Nc1ncc(Cc2ccccc2)s1)c1ccc2c(c1)OCCCO2` 47.6% (inactive)

Need growth of `Cc1ccc(-c2nc(/C=C3/C(=O)Nc4ccc(F)cc43)c3ccccn23)cc1` , thanks. 69.2% (inactive)

Form field: reported growth of `CCOC(=O)c1c(C)nc2c(c1N)CC(=O)N2Cc1ccc(OC)cc1` 80.4% (inactive)

Need growth, item `COc1cc(NC(=O)c2cncnc2Nc2ccc3c(ccn3Cc3ccccn3)c2)cc(OC)c1` 76.6% (inactive)

Fill in the blank: the reported growth of `C/C(Cc1ccc(Cl)cc1)=C(\c1ccc(OCCCN(C)C)cc1)c1ccc(OC(=O)Cc2ccccc2)cc1` is ____. 105% (inactive)

# get_value(readout='growth', item= `O=c1cc(-c2ccccc2)[nH]c2ncc(-c3ccc(F)cc3)n12` ) 94.5% (inactive)

Which growth reading was recorded for the compound `CCOC(=O)c1[nH]c2c(c1C)-c1[nH]c(=O)c(S(=O)(=O)c3ccccc3)cc1SC2` ? 89.6% [100 µM] (inactive)

====

Test system: OVCAR-3 ovarian
Test: NCI-60 one-dose screen, 48 h (100 = growth as untreated, 0 = no growth, -100 = all killed)
Conditions: 10 µM unless noted
Compounds without any hit were thinned out: in the full panel of roughly 83,000, 20% have a hit.
Outcome label depends on growth relative to 90%: at/above gives t, below gives f.

Answer whether growth of `COc1ccc(Cn2cc(C(=O)N=Nc3c(O)[nH]c4c(C)cccc34)nn2)cc1` is greater than or equal to 90%. f

Answer whether growth of `COc1ccc(NC(=O)Nc2ccc(OCCCCCC(=O)NO)cc2)cc1` is greater than or equal to 90%. t

Does the reported growth for `O=C(/C=C/c1ccccc1)c1ccc(Nc2nc(Nc3ccc(F)cc3)nc(Nc3ccc(Cl)cc3)n2)cc1` fall at or above the 90% mark? f

# check: growth of `CS(=O)(=O)Nc1cc(-c2ccc3ncc(C#N)c(Nc4ccc(F)c(Cl)c4)c3c2)cnc1Cl` is greater than or equal to 90% f

Say whether N#Cc1cccc(C2C3=C(COC3=O)N(CCO)c3cc4c(cc32)CCC4)c1 (configuration not stated) shows growth of 90% or more. f

Hi team, for `COc1ccc(-c2nc(/C=C3\C(=O)N(C)c4ccccc43)c3ccccn23)cc1` , is the recorded growth at or above 90%? t

State whether the measured growth reaches 90%, counting equality as reaching it, for `CC(=O)OC[C@]12CC[C@@H]([C@@H](C)c3nnc(-c4ccncc4)o3)[C@@H]1[C@H]1CC[C@@H]3[C@@]4(C)CC[C@H](OC(C)=O)C(C)(C)[C@@H]4CC[C@@]3(C)[C@]1(C)CC2` f

# bool: growth of `C=CCC(CCCC)(C(=O)OCC)C(=O)OCC` >= 90% t

Exam item: decide whether the reported growth for `O=S(=O)(NCCCNc1nccc(-c2c(-c3cccc(F)c3)nc3occn23)n1)c1ccc(F)cc1` is at least 90%. f

State whether the measured growth reaches 90%, counting equality as reaching it, for `COc1ccc2cc(-c3ccnc4c(N=Nc5ccc(Cl)cc5)c(N)nn34)ccc2c1` t

Decide: growth of `O=C(CSc1nnc(-c2cc(-c3ccccc3)nc3ccccc23)n1-c1ccccc1)Nc1ccc(C(=O)/C=C/c2ccc(Cl)cc2)cc1` >= 90%? t

Tell me whether growth is at least 90% here: `O=S(=O)(Nc1cc(Sc2cccc3cccnc23)c(O)c2ccccc12)c1ccccc1` f

====

Tested on: NCI-H23 lung
Assay: NCI-60 one-dose screen, 48 h (100 = growth as untreated, 0 = no growth, -100 = all killed)
Conditions: 10 µM unless noted
The panel holds about 83,000 compounds, 20% with a hit somewhere; the sample as a whole holds those more often.
measure: growth (%)
Quick reminder: number only, in %, skip the unit.

Which growth value belongs to `Nc1ccc(-c2csc(-n3[nH]c(=O)ccc3=O)n2)cc1` ? 98

Tell me the measured growth of `NC(=O)c1c(NC(=O)c2cccc(C(F)(F)F)c2)sc2c1CCC(=O)C2` , please. -2.9

// lookup growth for `C[C@]1(O)CC(=O)[C@]2(O)C3=C(C=C[C@]2(O)C1)C(=O)c1c(O)cccc1C3=O` -6.78

May I ask what growth has been recorded for `CC/C(Cc1ccccc1)=C(\c1ccc(OCCCN(C)C)cc1)c1ccc(OC(=O)NCc2ccccc2)cc1` ? 92.9

Value lookup for growth; key = COc1ccc(CCN(CC(=O)N(CC(N)=O)C2CCC[C@@H]2OCc2ccccc2)C(=O)CN(C(=O)CN(CCc2ccc(Cl)cc2)C(=O)CN(C(=O)CN(C)Cc2ccccc2F)[C@H](C)C2CCCCC2)[C@H](C)C2CCCCC2)cc1OC (some centres undefined) 31.9

Form field: reported growth of `Cc1nc2ccccc2c(/C=C/c2ccccc2)c1C(=O)/C=C/c1ccccc1` 28.7

Dear colleague, I am looking for the recorded growth of the following compound: `O=c1cc(-c2ccccc2)[nH]c2ncc(-c3ccc(F)cc3)n12` 72.2

Bench note: what growth did `Cc1ccc(C=C2C(=O)NC(=O)NC2=O)cc1` show? 102

Entry `COc1cc(OC)c(/C=C/C(=O)c2c(O)cc(OC)c(C3CCN(C)CC3)c2OC)c(OC)c1` : reported growth = ? -58.8

Bench note: what growth did `Cc1ncc(C(=O)Nc2ccc(CN3CCN(C)CC3)c(C(F)(F)F)c2)cc1C#Cc1cnc(N)c2ncccc12` show? 38.4

// growth lookup, key: `C[C@H](CCCC(=O)NCC#CCN1CCN(C)CC1)[C@H]1CC[C@H]2[C@@H]3CC[C@@H]4CC(=O)CC[C@]4(C)[C@H]3CC[C@]12C` 87.7

# input compound: CCCCCCCCCCCCCCCCCC1=NC(C)(C)CN1CC(C)O (centres undefined) ; wanted: its growth 84.8

Can you look up the measured growth of `O=C1Nc2ccccc2/C1=C/c1cccn1C(=O)c1ccc(Cl)s1` for me? 30.2

// returns reported growth for input `COc1cccc(CNc2c3ccccc3nc3ccccc23)c1` 37.3

Fill blank: measured growth of the compound COc1ccc(C2=NN(C(C)=O)C(c3cn(-c4ccccc4)nc3-c3ccc(Cl)cc3)C2)cc1 (centres undefined) is ____. 9.25

I'd like to know its growth. The compound in question is `Cc1ccc(-c2nc(N3CCNCC3)c3oc(-c4ccc(C)cc4)nc3n2)cc1` 75.6

What growth value was documented for this compound, `O=C(Cc1ccc(NC(=O)c2cccc(Cl)c2)cc1)NCc1ccccc1` ? 73.2

Query: growth; subject: `CCc1ccc(CCC(=O)Nc2ncc(Cc3ccccc3)s2)o1` 37.6

Need growth of `Nc1[nH]n2cc(-c3ccc(F)cc3)nc2c1N=Nc1ccc(S(N)(=O)=O)cc1` , thanks. 80.9

So what does the record say about growth for `Cc1cccc(-c2nc(Nc3ccc4ncsc4c3)c3ccccc3n2)n1` ? 57.8

Which growth is listed for `C#CCOc1cccc(-c2ncnc3cc(NC(=O)C=C)ccc23)c1` ? 69

Given Cc1nc2c(c(=O)[nH]1)C(c1ccccc1)c1ccc3ccccc3c1O2 (centres undefined) , state its recorded growth. 50.4

Reported growth for `C#CCNC(=O)[C@]1(C)CCC[C@@]2(C)[C@H]1CC=C1C=C(C(C)C)CC[C@@H]12` : what is it? 100

Which measured growth value corresponds to N#Cc1cccc(C2C3=C(COC3=O)N(CCO)c3cc4c(cc32)CCC4)c1 (centres undefined) ? 23.3
